Data origin, for the record: patent US12077566

- assayed_target: T1, EGFR extracellular domain (with an amino acid sequence of 25-645) (human, UniProt P00533 25-645)
- T1 construct: range 25-645; Coupled on a CM5 chip; also called epidermal growth factor receptor extracellular domain; ligand (on the chip)
- assay_protocol: SPR, Biacore T200; EGFR extracellular domain on CM5 chip, rLZ-8 protein as analyte
reported_property: Kd (nM)

- binder: "rLZ-8 (D20H) (other, Surface potential mutant of rLZ-8) MSDTALIFRLAWDVKKLSFHYTPNWGRGNPNNFIDTVTFPKVLTDKAYTYRVAVSGRNLGVKPSYAVESDGSQKVNFLEYNSGYGIADTNTIQVFVVDPDTNNDFIIAQWN"
  Kd (nM): 7.36

A. rLZ-8 (K46E/K74E) (other, Mutant of rLZ-8) MSDTALIFRLAWDVKKLSFDYTPNWGRGNPNNFIDTVTFPKVLTDEAYTYRVAVSGRNLGVKPSYAVESDGSQEVNFLEYNSGYGIADTNTIQVFVVDPDTNNDFIIAQWN
B. rLZ-8 (D70K) (other, Surface potential mutant of rLZ-8) MSDTALIFRLAWDVKKLSFDYTPNWGRGNPNNFIDTVTFPKVLTDKAYTYRVAVSGRNLGVKPSYAVESKGSQKVNFLEYNSGYGIADTNTIQVFVVDPDTNNDFIIAQWN
C. rLZ-8 (K16A/K41A) (other, Alanine mutant of rLZ-8) MSDTALIFRLAWDVKALSFDYTPNWGRGNPNNFIDTVTFPAVLTDKAYTYRVAVSGRNLGVKPSYAVESDGSQKVNFLEYNSGYGIADTNTIQVFVVDPDTNNDFIIAQWN
Q: Rank ascending by Kd. Provide the labels, sequenced as the question asks.
A: B, A, C
(B: 2.25 nM, A: 9.35 nM, C: 1240 nM)
